These measurements were taken from patent US8815872B2.

Entries and their measured IC50 follow.
# SYSTEM_TESTED: Aurora A (Homo sapiens, UniProt O14965)
# Construct: N-terminal GST fusion with full length Aurora A (1-403 amino acids); purchased Carna Biosciences 05-101
# Sequence (O14965 1-403): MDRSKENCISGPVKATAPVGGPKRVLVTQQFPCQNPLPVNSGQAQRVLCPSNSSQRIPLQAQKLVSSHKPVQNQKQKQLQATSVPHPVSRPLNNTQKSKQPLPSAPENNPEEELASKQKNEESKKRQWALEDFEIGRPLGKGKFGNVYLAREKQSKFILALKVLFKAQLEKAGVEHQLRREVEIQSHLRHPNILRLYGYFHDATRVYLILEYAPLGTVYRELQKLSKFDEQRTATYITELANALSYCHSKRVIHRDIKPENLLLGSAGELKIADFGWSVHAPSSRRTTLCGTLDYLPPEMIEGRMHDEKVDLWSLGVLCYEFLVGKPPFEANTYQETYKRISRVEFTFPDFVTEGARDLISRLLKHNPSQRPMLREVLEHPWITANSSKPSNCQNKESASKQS
# ASSAY_INFO: Aurora A enzyme assay (Caliper LC3000 mobility shift)
# Type: biochemical

Solved entries:
O[C@@H]1COC2CCCC(C2)Nc2nc(ncc2F)Nc2cccc(c2)OC[C@@H]1O (some centres unmarked): 0.101 to 1 µM
Fc1cnc2nc1NC1CCC(CC1)OC/C=C\COc1cccc(c1)N2: 0.101 to 1 µM
NC(=O)[C@H]1[C@H]2C[C@H]3[C@H]1Nc1nc(ncc1F)Nc1cccc(c1)C(O)CS[C@@H]3C2 (some centres unmarked): 0.001 to 0.1 µM

Request: Answer with the recorded IC50 of `CC(=O)N1Cc2cccc(c2)Nc2ncc(F)c(n2)N[C@@H]2[C@@H]3C[C@@H](C[C@H]3C1)[C@@H]2C(=O)O` only.
Response: 1 to 6.25 µM

Request: Answer with the recorded IC50 of `NC(=O)[C@H]1[C@H]2C[C@H]3[C@H]1Nc1nc(ncc1F)Nc1ccc4c(c1)N(CC4)C(=O)CS[C@@H]3C2` only.
Response: 0.001 to 0.1 µM

----------
# SYSTEM_TESTED: Aurora A (Homo sapiens)
# Construct: N-terminal GST fusion with full length Aurora A (1-403 amino acids)
# Sequence (O14965 1-403): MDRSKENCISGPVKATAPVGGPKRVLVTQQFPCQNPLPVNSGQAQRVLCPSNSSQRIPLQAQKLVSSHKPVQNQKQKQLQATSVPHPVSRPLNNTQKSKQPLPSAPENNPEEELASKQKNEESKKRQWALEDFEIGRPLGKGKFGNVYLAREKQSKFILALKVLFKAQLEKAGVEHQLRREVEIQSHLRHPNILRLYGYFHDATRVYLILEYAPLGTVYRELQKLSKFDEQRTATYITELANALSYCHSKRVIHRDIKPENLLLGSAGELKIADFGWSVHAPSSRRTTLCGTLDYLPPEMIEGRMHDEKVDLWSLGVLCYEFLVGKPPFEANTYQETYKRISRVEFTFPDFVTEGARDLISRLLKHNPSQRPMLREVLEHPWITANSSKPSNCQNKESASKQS
# ASSAY_INFO: Aurora A enzyme assay (Caliper LC3000 mobility shift)
QUANTITY_NAME: IC50

Solved entries:
C=CC1CC2/C=C\COc3cccc(c3)Nc3ncc(F)c(n3)N[C@H]2[C@H]1C(N)=O (some centres unmarked): 1 to 100 nM
CN1CCN(c2ccc3cc2C(=O)NC[C@@H]2C[C@@H]4C[C@H]2[C@@H](Nc2nc(ncc2F)N3)[C@H]4C(N)=O)CC1: 101 to 1000 nM
NC(=O)[C@H]1[C@@H]2C[C@H]3CNC(=O)Cn4cnc(c4)Nc4ncc(F)c(n4)N[C@@H]1[C@@H]3C2: 1000 to 6250 nM

Request: Answer with the recorded IC50 of NC(=O)[C@H]1[C@@H]2CC3CNCCc4cccc(c4)Nc4ncc(F)c(n4)N[C@@H]1[C@@H]3C2 (some centres unmarked) only.
Response: 101 to 1000 nM

Request: Answer with the recorded IC50 of `NC(=O)[C@H]1[C@H]2C[C@H]3[C@H]1Nc1nc(ncc1F)Nc1ccc(F)c(c1)CC(=O)O[C@@H]3C2` only.
Response: 1000 to 6250 nM

Request: Answer with the recorded IC50 of C=CC(=O)NC[C@H]1[C@H]2C[C@H]3[C@H]1Nc1nc(ncc1F)Nc1cccc(c1)C(O)CS[C@@H]3C2 (some centres unmarked) only.
Response: 101 to 1000 nM

Request: Answer with the recorded IC50 of NC(=O)[C@H]1[C@@H]2CC3CNC(=O)Cc4cccc(c4)Nc4ncc(F)c(n4)N[C@@H]1[C@@H]3C2 (some centres unmarked) only.
Response: 1 to 100 nM

Request: Answer with the recorded IC50 of `CN1CCN(c2ccc3cc2[C@H](O)CS[C@@H]2C[C@@H]4C[C@H]2[C@@H](Nc2nc(ncc2F)N3)[C@H]4C(N)=O)CC1` only.
Response: 1 to 100 nM

----------
# SYSTEM_TESTED: PKCα(h) (Homo sapiens, UniProt P17252)
# Construct: purchased Caliper Life Sciences
# ASSAY_INFO: Other kinases, single-concentration inhibition (Table 3)
# Type: biochemical
# TEST_PARAMETERS: 1 μM
QUANTITY_NAME: % inhibition PKCα(h) (%)
// return numeric value only (unit: %, not printed)

Solved entries:
CN1CCN(c2ccc3cc2NC(=O)CS[C@@H]2C[C@@H]4C[C@H]2[C@@H](Nc2nc(ncc2F)N3)[C@H]4C(N)=O)CC1 [Example 24]: 103
CN1CCN(c2ccc3cc2OCCS[C@@H]2C[C@@H]4C[C@H]2[C@@H](Nc2nc(ncc2F)N3)[C@H]4C(N)=O)CC1 [Example 22]: 100
NC(=O)[C@H]1[C@H]2C[C@H]3[C@H]1Nc1nc(ncc1F)Nc1cccc(c1)C(=O)CS[C@@H]3C2 [Example 11]: 94

Attention now turns to another entry.
Request: Answer with the recorded % inhibition PKCα(h) of NC(=O)[C@H]1[C@H]2C[C@H]3[C@H]1Nc1nc(ncc1F)Nc1cccc(c1)OCCS[C@@H]3C2 [Example 20] only.
Response: 107

----------
# SYSTEM_TESTED: Tie2(R849W)(h) (Homo sapiens, UniProt Q02763, R849W)
# Construct: purchased Caliper Life Sciences
# Sequence (Q02763 23-1124 R849W): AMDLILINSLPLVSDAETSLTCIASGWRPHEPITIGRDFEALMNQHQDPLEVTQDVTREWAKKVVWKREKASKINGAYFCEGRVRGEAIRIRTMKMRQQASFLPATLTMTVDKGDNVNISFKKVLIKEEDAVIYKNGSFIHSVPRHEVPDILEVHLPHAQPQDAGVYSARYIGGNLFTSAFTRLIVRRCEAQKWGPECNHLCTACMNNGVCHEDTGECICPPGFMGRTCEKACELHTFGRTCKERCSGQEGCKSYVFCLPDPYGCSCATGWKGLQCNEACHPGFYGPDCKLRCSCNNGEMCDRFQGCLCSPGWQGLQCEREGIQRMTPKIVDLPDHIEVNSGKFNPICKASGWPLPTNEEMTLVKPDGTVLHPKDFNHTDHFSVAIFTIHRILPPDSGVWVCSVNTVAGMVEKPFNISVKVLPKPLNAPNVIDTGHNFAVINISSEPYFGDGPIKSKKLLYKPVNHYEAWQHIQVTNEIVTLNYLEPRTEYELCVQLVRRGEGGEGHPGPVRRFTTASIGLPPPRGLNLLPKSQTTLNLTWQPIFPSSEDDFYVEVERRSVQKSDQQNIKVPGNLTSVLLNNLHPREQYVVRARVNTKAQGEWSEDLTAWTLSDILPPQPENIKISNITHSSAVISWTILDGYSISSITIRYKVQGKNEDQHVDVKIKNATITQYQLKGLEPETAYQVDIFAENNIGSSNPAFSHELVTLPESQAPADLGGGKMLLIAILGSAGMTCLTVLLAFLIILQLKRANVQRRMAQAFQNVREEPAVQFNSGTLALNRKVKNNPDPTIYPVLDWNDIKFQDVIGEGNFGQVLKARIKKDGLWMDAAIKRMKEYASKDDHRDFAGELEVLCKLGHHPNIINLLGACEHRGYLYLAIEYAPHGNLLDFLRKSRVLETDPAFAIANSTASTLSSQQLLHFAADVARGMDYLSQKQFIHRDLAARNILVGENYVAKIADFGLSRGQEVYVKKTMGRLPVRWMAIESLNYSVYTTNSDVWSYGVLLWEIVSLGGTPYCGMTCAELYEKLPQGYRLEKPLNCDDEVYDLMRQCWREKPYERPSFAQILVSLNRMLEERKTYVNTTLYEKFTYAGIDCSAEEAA
# ASSAY_INFO: Other kinases, single-concentration inhibition (Table 3)
# Format: biochemical
# TEST_PARAMETERS: 1 μM
Entries and their measured % inhibition Tie2(R849W)(h) follow.
// return numeric value only (unit: %, not printed)

Solved entries:
NC(=O)[C@H]1[C@H]2C[C@H]3[C@H]1Nc1nc(ncc1F)Nc1cccc(c1)NC(=O)CS[C@@H]3C2 [Example 27]: 17
NC(=O)[C@H]1[C@H]2C[C@H]3[C@H]1Nc1nc(ncc1F)Nc1cccc(c1)OCCS[C@@H]3C2 [Example 20]: 14
CN1CCN(c2ccc3cc2OCCS[C@@H]2C[C@@H]4C[C@H]2[C@@H](Nc2nc(ncc2F)N3)[C@H]4C(N)=O)CC1 [Example 22]: 57

Request: Answer with the recorded % inhibition Tie2(R849W)(h) of NC(=O)[C@H]1[C@H]2C[C@H]3[C@H]1Nc1nc(ncc1F)Nc1cccc(c1)C(=O)CS[C@@H]3C2 [Example 11] only.
Response: 103

----------
# SYSTEM_TESTED: MSK2(h) (Homo sapiens, UniProt O75676)
# Construct: purchased Caliper Life Sciences
# Sequence (O75676 whole entry): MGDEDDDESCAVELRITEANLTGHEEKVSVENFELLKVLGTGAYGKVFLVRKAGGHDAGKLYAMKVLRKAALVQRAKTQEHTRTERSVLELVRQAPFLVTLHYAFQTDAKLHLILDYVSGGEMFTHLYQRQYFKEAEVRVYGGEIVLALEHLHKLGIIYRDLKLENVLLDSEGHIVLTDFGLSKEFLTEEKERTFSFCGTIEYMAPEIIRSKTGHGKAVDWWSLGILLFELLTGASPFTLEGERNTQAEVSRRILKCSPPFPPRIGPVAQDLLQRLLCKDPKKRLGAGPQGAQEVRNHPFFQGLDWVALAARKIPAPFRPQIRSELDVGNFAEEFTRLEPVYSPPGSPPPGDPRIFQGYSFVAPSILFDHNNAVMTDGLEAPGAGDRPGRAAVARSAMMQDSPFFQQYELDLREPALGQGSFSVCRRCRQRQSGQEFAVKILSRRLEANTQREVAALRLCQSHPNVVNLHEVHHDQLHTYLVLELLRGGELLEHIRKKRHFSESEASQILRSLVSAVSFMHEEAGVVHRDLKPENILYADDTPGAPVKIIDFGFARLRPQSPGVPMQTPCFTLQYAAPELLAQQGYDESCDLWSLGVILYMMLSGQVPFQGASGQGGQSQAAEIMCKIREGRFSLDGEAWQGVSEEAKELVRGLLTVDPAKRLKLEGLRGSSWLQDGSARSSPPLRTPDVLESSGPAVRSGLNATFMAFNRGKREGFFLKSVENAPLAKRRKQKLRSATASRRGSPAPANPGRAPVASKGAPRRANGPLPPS
# ASSAY_INFO: Other kinases, single-concentration inhibition (Table 3)
# Format: biochemical
# TEST_PARAMETERS: 1 μM
# Method: The Aurora and other kinase assays described here were performed on two Caliper Life Sciences systems, the LC3000 and the Desktop Profiler. These provide data on enzyme activity via measurement of the relative amounts of phosphorylated or unphosphorylated fluorescently labelled substrate peptide at the end of an enzymatic reaction. […] Plates were read in a manner identical to that of the LC3000, and the ratio between substrate and product peaks provided the activity of the enzyme in that well. […]
Entries and their measured % inhibition MSK2(h) follow.
// return numeric value only (unit: %, not printed)

Solved entries:
NC(=O)[C@H]1[C@H]2C[C@H]3[C@H]1Nc1nc(ncc1F)Nc1cccc(c1)NC(=O)CS[C@@H]3C2: 65
C=C[C@@H]1C[C@@H]2/C=C/COc3cccc(c3)Nc3ncc(F)c(n3)N[C@H]2[C@H]1C(N)=O (single isomer, unassigned): 136
CN1CCN(c2ccc3cc2NC(=O)CS[C@@H]2C[C@@H]4C[C@H]2[C@@H](Nc2nc(ncc2F)N3)[C@H]4C(N)=O)CC1: 81
CN1CCN(c2ccc3cc2OCCS[C@@H]2C[C@@H]4C[C@H]2[C@@H](Nc2nc(ncc2F)N3)[C@H]4C(N)=O)CC1: 60
CC[C@@H]1C[C@@H]2/C=C\COc3cccc(c3)Nc3ncc(F)c(n3)N[C@H]2[C@H]1C(N)=O (single isomer, unassigned): 60

Request: Answer with the recorded % inhibition MSK2(h) of `NC(=O)[C@H]1[C@H]2C[C@H]3[C@H]1Nc1nc(ncc1F)Nc1cccc(c1)OCCS[C@@H]3C2` only.
Response: 48
